Recorded IC50 values for a group of compounds are listed next.
assay: inhibitors of Bluetongue virus cytopathic effect, confirmation, arbovirus, BSR cells (AID 1250); assay type: functional;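 note: protection from viral cytopathic effect measured as cell viability by ATP luminescence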
Calls of active or inactive are those of the source. The rule behind the calls is not given here.

>  <compound>
S=C(NCc1ccccc1)N1CCn2cccc2C1c1cccnc1 (centres undefined)

>  <IC50>
22.1 µM (active)

$$$$
>  <compound>
CC1CCCCN1c1nnc(NC(=O)c2cc(-c3ccc(Br)cc3)on2)s1 (centres undefined)

>  <IC50>
29 µM (active)

$$$$
>  <compound>
COC(=O)/C=C/c1sc2nc(C)cc(C)c2c1/N=C/N(C)C

>  <IC50>
34.4 µM (active)

$$$$
>  <compound>
O=C(O)c1cccc(NN=C2c3ccccc3-c3ccccc32)c1

>  <IC50>
23.9 µM (active)

$$$$
